Just for reference, paper doi:10.1101/2025.10.20.683491v1 is where these values come from.

- systemName: hERG channel (Homo sapiens, UniProt Q12809, species not given)
- Sequence (Q12809 whole entry): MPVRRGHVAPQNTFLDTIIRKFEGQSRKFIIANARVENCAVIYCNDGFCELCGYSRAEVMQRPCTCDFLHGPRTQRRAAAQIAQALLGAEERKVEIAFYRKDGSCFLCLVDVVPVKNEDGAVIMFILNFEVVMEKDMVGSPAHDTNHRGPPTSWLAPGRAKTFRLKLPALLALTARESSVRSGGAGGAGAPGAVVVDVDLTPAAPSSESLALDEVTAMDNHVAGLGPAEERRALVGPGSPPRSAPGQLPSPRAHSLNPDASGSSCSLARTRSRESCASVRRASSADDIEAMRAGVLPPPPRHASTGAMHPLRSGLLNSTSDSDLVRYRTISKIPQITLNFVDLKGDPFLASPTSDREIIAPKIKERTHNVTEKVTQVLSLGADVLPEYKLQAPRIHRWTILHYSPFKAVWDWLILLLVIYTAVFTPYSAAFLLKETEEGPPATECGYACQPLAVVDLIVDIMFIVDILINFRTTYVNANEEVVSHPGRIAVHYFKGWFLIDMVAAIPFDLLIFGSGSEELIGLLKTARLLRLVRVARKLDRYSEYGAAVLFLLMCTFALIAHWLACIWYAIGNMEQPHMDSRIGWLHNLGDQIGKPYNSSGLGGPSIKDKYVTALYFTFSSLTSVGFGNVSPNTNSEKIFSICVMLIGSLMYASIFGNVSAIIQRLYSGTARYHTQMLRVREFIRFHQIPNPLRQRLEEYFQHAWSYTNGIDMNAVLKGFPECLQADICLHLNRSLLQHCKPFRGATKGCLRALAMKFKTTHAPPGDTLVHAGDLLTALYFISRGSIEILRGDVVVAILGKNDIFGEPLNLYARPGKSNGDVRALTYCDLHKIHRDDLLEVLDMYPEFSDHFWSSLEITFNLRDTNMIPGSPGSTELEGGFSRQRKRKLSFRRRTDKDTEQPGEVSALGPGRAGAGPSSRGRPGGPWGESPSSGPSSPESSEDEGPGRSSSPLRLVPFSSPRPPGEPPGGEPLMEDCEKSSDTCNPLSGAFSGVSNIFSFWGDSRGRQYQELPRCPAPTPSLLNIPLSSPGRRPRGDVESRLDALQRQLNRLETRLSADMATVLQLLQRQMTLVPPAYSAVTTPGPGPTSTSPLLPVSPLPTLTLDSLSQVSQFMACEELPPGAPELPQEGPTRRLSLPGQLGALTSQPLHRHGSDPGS
- experimentSummary: hERG channel inhibition assay
- Assay type: cell-based
quantity: IC50

## Task # returns recorded IC50 (system: hERG channel (Homo sapiens, UniProt Q12809, species not given)) for CNC(=O)C[C@@H](NC(=O)C[C@H](Cc1c[nH]c2ccccc12)NC(=O)[C@@H]1CCCC[C@H]1NCc1cnc(-c2sc(C)nc2C)o1)c1ccccc1
## Result > 100 µM
